B1: VH:VL chains; a variant is named by its letters at X, in order (parent)
chain 1: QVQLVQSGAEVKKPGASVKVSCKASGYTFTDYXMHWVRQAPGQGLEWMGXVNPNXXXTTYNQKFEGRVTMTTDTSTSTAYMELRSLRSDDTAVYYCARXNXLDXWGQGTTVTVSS
chain 2: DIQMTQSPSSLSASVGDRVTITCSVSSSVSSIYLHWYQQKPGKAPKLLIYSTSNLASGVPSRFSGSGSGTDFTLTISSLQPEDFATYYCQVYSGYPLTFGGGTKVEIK

Variants of: B1
Test protocol: yeast display scFab, FACS + sequencing
Run parameters: with MET
The list shows a part of the results. How many sequences the whole screen found active is unknown.
Recorded metric: antigen binding call

FRGRGSLV	binds
YKKGSSLF	binds
AEAGDAVV	no binding
VEEEGSVV	no binding
FRKAAVAV	no binding
ARAGGSVV	binds
YRKGSSVD	binds
DEEASSWA	no binding
DAARGDGA	no binding
AEERDSVV	no binding
VKARGSLA	binds
SGRGNAAD	no binding
YEEGTDWY	no binding
ARARGSWV	binds
FRKRGSAV	binds
SAEGGSSA	no binding
VAKEGAWV	no binding
ATAGSAAV	no binding
FGATSVSF	no binding
VKGRADSF	no binding
YKERGDVF	no binding
YKARGAGA	binds
